system: 323965-272-R-J2-PDC complex spheroid viability; test: Anticancer human tumor 323965-272-R-J2-PDC patient-derived pancreatic carcinoma cell line growth inhibition [CLK]; conditions: second compound 0.316 µM; first compound 0.1 µM; stronger effect = lower value
Catalogue of compounds with associated viability, T/C

COMPOUND	UNIT_OF_MEASURE	viability, T/C
COc1c(OCCCN2CCOCC2)ccc2c3n(c(=NC(=O)c4cnc(N)nc4)nc12)CCN3 + CNC(=O)c1ccc(Nc2nc(OC3CCCC3)c3c(-c4ccc5nc(C)oc5c4)c[nH]c3n2)c(OC)c1	%	31.7
C=CC(=O)N1CCN(c2nc(=O)n(-c3c(C)ccnc3C(C)C)c3nc(-c4c(O)cccc4F)c(F)cc23)C(C)C1 (stereo not drawn) + CNC(=O)c1ccc(Nc2nc(OC3CCCC3)c3c(-c4ccc5nc(C)oc5c4)c[nH]c3n2)c(OC)c1	%	41.1
CC1(C)CCC(CN2CCN(c3ccc(C(=O)NS(=O)(=O)c4ccc(NCC5CCOCC5)c([N+](=O)[O-])c4)c(Oc4cnc5[nH]ccc5c4)c3)CC2)=C(c2ccc(Cl)cc2)C1 + CN1CCN(c2cc(C(=O)Nc3cc4cc(-c5cnn(C)c5)ccc4cn3)ccn2)CC1	%	24.5

----------
system: 323965-272-R-J2-PDC complex spheroid viability; assay: Anticancer human tumor 323965-272-R-J2-PDC cell line growth inhibition [CLK]; conditions: second compound 0.316 µM; first compound 0.1 µM; stronger effect = lower value;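 also: spheroids exposed to agents for seven days before readout; percent of DMSO vehicle control wells so 100% = untreated growth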
Label met when viability, T/C is strictly below 30%; otherwise label not met.

MOLECULE	QUALITATIVE_LABEL
CC(=O)O[C@H]1C(=O)[C@@]2(C)[C@H]([C@H](OC(=O)c3ccccc3)[C@]3(O)C[C@H](OC(=O)[C@H](O)[C@@H](NC(=O)c4ccccc4)c4ccccc4)C(C)=C1C3(C)C)[C@]1(OC(C)=O)CO[C@@H]1C[C@@H]2O + CN1CCN(c2cc(C(=O)Nc3cc4cc(-c5cnn(C)c5)ccc4cn3)ccn2)CC1	met
CC(Nc1ccc2c(c1)OCCn1cc(N3C(=O)OCC3C(F)F)nc1-2)C(N)=O (stereo not given) + CNC(=O)c1ccc(Nc2nc(OC3CCCC3)c3c(-c4ccc5nc(C)oc5c4)c[nH]c3n2)c(OC)c1	not met
COc1c(OCCCN2CCOCC2)ccc2c3n(c(=NC(=O)c4cnc(N)nc4)nc12)CCN3 + CN1CCN(c2cc(C(=O)Nc3cc4cc(-c5cnn(C)c5)ccc4cn3)ccn2)CC1	met
CC(Nc1ccc2c(c1)OCCn1cc(N3C(=O)OCC3C(F)F)nc1-2)C(N)=O (stereo not given) + CN1CCN(c2cc(C(=O)Nc3cc4cc(-c5cnn(C)c5)ccc4cn3)ccn2)CC1	met
COc1ccc([C@@H](O)c2cc(-c3ncnc4cc(N5CCOCC5)ccc34)c(F)cc2Cl)nn1 + CNC(=O)c1ccc(Nc2nc(OC3CCCC3)c3c(-c4ccc5nc(C)oc5c4)c[nH]c3n2)c(OC)c1	not met
CCN1CCN(Cc2ccc(Nc3ncc(F)c(-c4cc(F)c5nc(C)n(C(C)C)c5c4)n3)nc2)CC1 + CN1CCN(c2cc(C(=O)Nc3cc4cc(-c5cnn(C)c5)ccc4cn3)ccn2)CC1	met
O=C(c1cc(Cc2n[nH]c(=O)c3ccccc23)ccc1F)N1CCN(C(=O)C2CC2)CC1 + CNC(=O)c1ccc(Nc2nc(OC3CCCC3)c3c(-c4ccc5nc(C)oc5c4)c[nH]c3n2)c(OC)c1	not met
Nc1ccn(C2OC(CO)C(O)C2(F)F)c(=O)n1 (stereo not given) + CNC(=O)c1ccc(Nc2nc(OC3CCCC3)c3c(-c4ccc5nc(C)oc5c4)c[nH]c3n2)c(OC)c1	met
CCc1c2c(nc3ccc(O)cc13)-c1cc3c(c(=O)n1C2)COC(=O)[C@]3(O)CC + CN1CCN(c2cc(C(=O)Nc3cc4cc(-c5cnn(C)c5)ccc4cn3)ccn2)CC1	met
COc1cccc2c1C(=O)c1c(O)c3c(c(O)c1C2=O)CC(O)(C(=O)CO)CC3OC1CC(N)C(O)C(C)O1 (stereo not given) + CNC(=O)c1ccc(Nc2nc(OC3CCCC3)c3c(-c4ccc5nc(C)oc5c4)c[nH]c3n2)c(OC)c1	not met
